Reference source for all entries: patent US20250073355A1

# target: T1, CD44 (Cluster of differentiation 44) (human, UniProt P16070 21-742)
# T1 construct: whole, on cells; The target is tied to CD44 by siRNA knockdown in SK-Hep1 cells; also called CD44 on human SK-Hep1 HCC cells
# T1 sequence (P16070 21-742): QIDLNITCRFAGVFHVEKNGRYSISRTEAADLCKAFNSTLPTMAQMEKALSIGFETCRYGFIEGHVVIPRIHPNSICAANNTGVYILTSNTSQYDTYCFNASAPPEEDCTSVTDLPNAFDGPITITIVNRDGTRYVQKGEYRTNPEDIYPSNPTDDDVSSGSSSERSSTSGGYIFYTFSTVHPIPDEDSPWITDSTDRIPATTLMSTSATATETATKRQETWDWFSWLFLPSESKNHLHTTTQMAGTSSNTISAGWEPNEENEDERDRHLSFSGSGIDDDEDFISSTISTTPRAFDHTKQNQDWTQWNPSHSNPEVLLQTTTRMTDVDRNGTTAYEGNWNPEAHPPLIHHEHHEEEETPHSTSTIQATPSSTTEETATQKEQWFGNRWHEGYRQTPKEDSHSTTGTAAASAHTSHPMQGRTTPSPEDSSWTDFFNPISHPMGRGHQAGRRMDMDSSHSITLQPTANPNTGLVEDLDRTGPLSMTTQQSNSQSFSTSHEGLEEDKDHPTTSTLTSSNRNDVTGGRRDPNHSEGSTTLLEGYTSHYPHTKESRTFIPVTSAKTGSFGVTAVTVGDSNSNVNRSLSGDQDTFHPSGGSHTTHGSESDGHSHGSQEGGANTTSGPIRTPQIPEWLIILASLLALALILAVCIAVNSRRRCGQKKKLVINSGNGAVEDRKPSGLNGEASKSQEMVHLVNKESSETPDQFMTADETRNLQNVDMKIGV
# measurement_notes: flow cytometry on SK-Hep1 cells, labeled peptide 0-200 nM, 4 °C, 1 hour
No end group written: not given here. IRDye800 = fluorophore linked at C-terminus via GGGSC linker
parameter: pKd
Note: pKd values are expressed as the negative base-10 logarithm of concentration in M.

Recorded pKd (binder WKGWSYLWTQQAGGGSC-IRDye800 (Synthetic L-amino acid peptide made by Fmoc solid-phase synthesis on rink amide MBHA resin; also called CD44-directed peptide) [WKG*-IRDye800] ): 7.37
